- assay.system: JAK1 (Homo sapiens)
- Construct: made in house; host or cells: SF9 insect cells (baculovirus)
- assay.text: JAK1 inhibition (Table 4)
- Type: biochemical
- measurement.context: read-out: JAK1 Ki
// pKi lookup, one value per entry
Reminder that pKi is minus the log10 of a molar concentration.

Some solved cases for reference:
CC(C)OC(=O)N[C@H]1CC[C@H](n2cnc3cnc4[nH]ccc4c32)CC1 ... 8.05
N#CCCN1CCC(n2c(CCNS(=O)(=O)C3CC3)nc3cnc4[nH]ccc4c32)CC1 ... 8.53
N#Cc1cccc(CC(=O)N2CC[C@@H](n3cnc4cnc5[nH]ccc5c43)C2)c1 ... 7.05
OCc1nc2cnc3[nH]ccc3c2n1C1CCCOC1 (single isomer, unassigned) [Example 464] ... 7.24
c1cc2c(ncc3ncn(C4CCN(C5CCOCC5)CC4)c32)[nH]1 ... 7.49
CC1(n2cnc3cnc4[nH]ccc4c32)CCN(Cc2cncs2)CC1 ... 8.15

Query: Recall the reported pKi of CC(C)CC(=O)N1CCC[C@@H](n2c([C@@H](C)O)nc3cnc4[nH]ccc4c32)C1 on JAK1 (Homo sapiens) and write it down.
Reply: 6.57

Query: Quote JAK1 (Homo sapiens) pKi for entry Cc1nc2cnc3[nH]ccc3c2n1[C@@H]1CC[C@@H](NC(=O)CC(F)(F)F)C1 .
Reply: 8.65

Query: For JAK1 (Homo sapiens), give the measured pKi of the entry c1ccc(CN2CCC(n3c(C4CNC4)nc4cnc5[nH]ccc5c43)CC2)cc1
Reply: 8.13

Query: State recorded pKi with JAK1 (Homo sapiens), entry CS(=O)(=O)NCc1nc2cnc3[nH]ccc3c2n1C1CCN(Cc2ccccc2)CC1(F)F (racemic) , no comment.
Reply: 8.84

Query: // fetch pKi; item: Cc1nn(C)c(C)c1CN1CCC(n2c([C@@H](C)O)nc3cnc4[nH]ccc4c32)CC1 ; system: JAK1 (Homo sapiens)
Reply: 6.51

Query: Give the observed pKi of COCCNc1nc2cnc3[nH]ccc3c2n1C1CCNCC1 for JAK1 (Homo sapiens).
Reply: 7.54

Query: Give pKi for N#Cc1ccc(S(=O)(=O)N2CCC(n3cnc4cnc5[nH]ccc5c43)CC2)cc1 tested on JAK1 (Homo sapiens).
Reply: 8.42

Query: Please respond with reported pKi (system JAK1 (Homo sapiens)) for O=C(CN1CCCC1=O)N1CCC(n2cnc3cnc4[nH]ccc4c32)CC1 .
Reply: 7.36

Query: Report pKi under test system JAK1 (Homo sapiens) for CC(C)(C)OC(=O)N1CCC(N[C@H]2CC[C@H](n3cnc4cnc5[nH]ccc5c43)CC2)CC1 .
Reply: 8.16

Query: Lab note: record pKi of Cc1nc(CN2CCC(n3c([C@@H](C)O)nc4cnc5[nH]ccc5c43)CC2)n(C)c1C tested on JAK1 (Homo sapiens).
Reply: 7.13

Query: Given O=C(N[C@H]1CC[C@H](n2cnc3cnc4[nH]ccc4c32)CC1)OC1CCCC1 , report its pKi on JAK1 (Homo sapiens).
Reply: 8.30

Query: State pKi (JAK1 (Homo sapiens)) of N#Cc1ccc(S(=O)(=O)N2CCC(n3cnc4cnc5[nH]ccc5c43)CC2)c(Cl)c1 .
Reply: 8.94

====

- assay.system: JAK2 (Homo sapiens, UniProt O60674)
- Construct: made in house; host or cells: SF9 insect cells (baculovirus)
- Sequence (O60674 812-1132): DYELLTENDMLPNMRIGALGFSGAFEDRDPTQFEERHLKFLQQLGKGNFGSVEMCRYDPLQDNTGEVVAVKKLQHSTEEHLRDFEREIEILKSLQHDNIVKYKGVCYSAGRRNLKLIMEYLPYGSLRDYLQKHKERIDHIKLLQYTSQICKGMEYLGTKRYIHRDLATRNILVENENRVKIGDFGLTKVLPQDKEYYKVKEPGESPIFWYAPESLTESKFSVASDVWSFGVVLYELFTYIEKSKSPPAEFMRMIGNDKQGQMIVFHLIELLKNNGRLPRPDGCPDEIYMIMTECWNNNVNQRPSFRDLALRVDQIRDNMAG
- assay.text: JAK2 inhibition (Table 4)
- Type: biochemical
- measurement.context: read-out: JAK2 Ki
pKi: −log10 of the molar value.
Response field class: enum, chosen by comparing pKi against bucket A = under 6, bucket B = from 6 up to 7, bucket C = 7 and over

Example entries and their recorded answers appear below.
C[C@@H](O)c1nc2cnc3[nH]ccc3c2n1[C@@H]1CCCN(C(=O)Cn2ccnc2)C1 ... bucket A
Cc1nccn1Cc1nc2cnc3[nH]ccc3c2n1C1CCN(CCC#N)CC1 ... bucket C
Cc1nc(CN2CCC(n3c([C@@H](C)O)nc4cnc5[nH]ccc5c43)CC2)n(C)c1C ... bucket A
CS(=O)(=O)NCc1nc2cnc3[nH]ccc3c2n1C1CCN(CC(F)F)CC1 ... bucket C

Query: Which category does the recorded pKi put c1cc2c(ncc3ncn([C@@H]4CCCN(C5COC5)C4)c32)[nH]1 in?
Reply: bucket B

Query: Looking at N#CCCN1CCC(n2c(C3CC3(F)F)nc3cnc4[nH]ccc4c32)CC1 (racemic) , which class would you pick?
Reply: bucket C

Query: Sort into band: O=C(Cc1ccccc1)N1CCC[C@@H](n2cnc3cnc4[nH]ccc4c32)C1
Reply: bucket C

Query: Field: class (pKi) — entry: C[C@@H](O)c1nc2cnc3[nH]ccc3c2n1[C@H]1CCN(Cc2cnco2)C[C@H]1F
Reply: bucket C

Query: Using the reported pKi, which band applies to C[C@@H](O)c1nc2cnc3[nH]ccc3c2n1N1CCOCC1 ?
Reply: bucket B

Query: Which band does N#CCCNC1CCC(n2cnc3cnc4[nH]ccc4c32)C1 (racemic) fall in?
Reply: bucket C

Query: Note: place this compound into its band. Item: O=C([C@@H]1CCCCN1C1COC1)N1CCC(n2cnc3cnc4[nH]ccc4c32)CC1
Reply: bucket B

Query: Just checking, what class would you give c1cc2c(ncc3ncn(C4CCCCNC4)c32)[nH]1 (single isomer, unassigned) [Example 110] here?
Reply: bucket B

====

- assay.system: JAK1 (Homo sapiens)
- Construct: made in house; host or cells: SF9 insect cells (baculovirus)
- assay.text: JAK1 inhibition (Table 4)
- Format: biochemical
- measurement.context: read-out: JAK1 Ki
Counter-ions that a name gives are not always drawn.
result.type: pKi
Scale: negative log10 of molar concentration, which is what pKi denotes.

Answered cases to consult:
OC1CCN(Cc2nc3cnc4[nH]ccc4c3n2C2CCCCC2)CC1 [Example 932] ... 7.39
COC[C@H]1CC[C@H](n2c([C@@H](C)O)nc3cnc4[nH]ccc4c32)CC1 [Example 637] ... 8.72
NC(=O)Cc1nc2cnc3[nH]ccc3c2n1C1CCN(Cc2ccccc2)CC1 [Example 245] ... 8.01
NC(=O)Cc1nc2cnc3[nH]ccc3c2n1C1CCN(S(=O)(=O)C2CC2)CC1 [Example 382] ... 6.87
Cc1nccn1Cc1nc2cnc3[nH]ccc3c2n1C1CCN(CCC#N)CC1 [Example 402] ... 8.27
CC1CN(Cc2ccccc2)CCC1n1cnc2cnc3[nH]ccc3c21 (racemic) [Example 150, dihydrochloride] ... 8.38
OC(c1nc2cnc3[nH]ccc3c2n1C1CCCCC1)C1CCOCC1 (racemic) [Example 875] ... 7.46
c1cc2c(ncc3ncn(C4CCN(Cc5cncs5)CC4)c32)[nH]1 [Example 104] ... 9.05

Query: Name the recorded pKi of the compound listed here: C[C@@H](O)c1nc2cnc3[nH]ccc3c2n1[C@H]1CC[C@@H](NCC(F)F)C1 [Example 1005]
Reply: 8.63

Query: State its pKi: N#CCCN1CCC(n2c(CC(=O)N3CCC(F)(F)CC3)nc3cnc4[nH]ccc4c32)CC1 [Example 240]
Reply: 8.16

Query: For the compound CC(O)c1nc2cnc3[nH]ccc3c2n1C1CCCN(C(=O)C2CC(=O)N(C)C2)C1 (stereo not drawn) [Example 787] , give its reported pKi.
Reply: 6.33

====

Readings of Ki for the listed compounds
Protein target, amino acids: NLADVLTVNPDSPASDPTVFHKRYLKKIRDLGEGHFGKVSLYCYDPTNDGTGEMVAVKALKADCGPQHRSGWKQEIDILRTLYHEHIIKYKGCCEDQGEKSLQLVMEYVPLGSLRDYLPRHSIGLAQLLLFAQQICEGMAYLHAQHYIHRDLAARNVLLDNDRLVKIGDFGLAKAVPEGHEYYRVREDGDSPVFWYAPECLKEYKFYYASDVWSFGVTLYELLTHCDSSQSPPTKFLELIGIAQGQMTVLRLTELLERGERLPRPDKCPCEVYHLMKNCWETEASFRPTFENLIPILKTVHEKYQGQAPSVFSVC

Below, each entry is followed by its recorded Ki result.
CC(C)(C)OC(=O)N1CCCC1(C)C(=O)N1CCC(n2cnc3cnc4[nH]ccc4c32)CC1 (racemic) [Example 244] ... 1820 nM
CC(C)C(=O)N1CC(c2nc3cnc4[nH]ccc4c3n2C2CCN(CCC#N)CC2)C1 [Example 389] ... 181 nM
O=C(N[C@H]1CC[C@H](n2cnc3cnc4[nH]ccc4c32)CC1)N1CCOCC1 [Example 593] ... 398 nM

Query: Retrieve Ki measured for N#CCCN1CCC(n2c(CNC(=O)c3cccnc3)nc3cnc4[nH]ccc4c32)CC1 [Example 494] and print it.
Reply: 61.2 nM

====

- assay.system: JAK1 (Homo sapiens, UniProt P23458)
- Construct: made in house; host or cells: SF9 insect cells (baculovirus)
- Sequence (P23458 852-1154): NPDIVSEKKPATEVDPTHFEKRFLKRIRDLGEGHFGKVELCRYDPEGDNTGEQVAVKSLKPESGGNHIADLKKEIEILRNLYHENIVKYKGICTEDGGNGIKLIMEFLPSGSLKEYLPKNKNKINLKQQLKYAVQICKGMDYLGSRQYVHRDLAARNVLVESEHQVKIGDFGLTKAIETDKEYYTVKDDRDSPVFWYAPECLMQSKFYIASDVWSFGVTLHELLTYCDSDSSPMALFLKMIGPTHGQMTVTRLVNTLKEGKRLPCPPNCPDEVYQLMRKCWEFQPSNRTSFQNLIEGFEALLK
- assay.text: JAK1 inhibition (Table 4)
- Type: biochemical
- measurement.context: read-out: JAK1 Ki
pKi: −log10 of the molar value.
Tick Met if pKi is 8 or greater. Tick Not met if pKi is less than 8.

Please review the entries below; each comes with its answer.
N#CC1(C(=O)N2CCC[C@@H](n3cnc4cnc5[nH]ccc5c43)C2)CC1 ... Met
Cc1nc2cnc3[nH]ccc3c2n1[C@H]1CC[C@@H](C(=O)O)CC1 ... Not met

Query: Could you verify whether the entry C[C@@H](O)c1nc2cnc3[nH]ccc3c2n1C1CCNCC1(F)F (single isomer, unassigned) shows pKi of no less than 8?
Reply: Met

Query: Hi, just wondering whether CC1CN(Cc2cncnc2)CCC1n1cnc2cnc3[nH]ccc3c21 (racemic) [Example 342] shows pKi of 8 or higher.
Reply: Met
